Test system: Jurkat
Experiment: Growth inhibition of human Jurkat T cells at 1 ug/mL after 24 hrs
Format: functional, cell-based
The source made the active and inactive calls. The rule behind the calls is not given here.
value_kind: Activity

O=CC1=CC=C(c2ccc3c(c2)Cc2ccccc2-3)CC1c1ccc([N+](=O)[O-])cc1 (centres undefined) ... Active
CN(C)c1ccc(C2CC(c3ccc(Cl)s3)=CC=C2C=O)cc1 (centres undefined) ... Active
Cc1ccc(C2(C)CC(c3ccc(-c4ccccc4)cc3)=CC=C2C=O)o1 (centres undefined) ... Active
O=CC1=CC=C(c2ccc(-c3ccccc3)cc2)CC1c1ccc([N+](=O)[O-])cc1 (centres undefined) ... Active

Data credit: ChEMBL document CHEMBL1156621
